Reference for the values: patent US12551573B2

System: HBEGF locus
Assay type: cell-based, human
MEASUREMENT CONTEXT: high-throughput screen of dXR repression of the HBEGF gene; change in abundance of each domain in the library before and after diphtheria toxin selection
Below, each entry is listed with its recorded Log2 (fold change).
Please reply with the value in numeric form only.

DOMAIN_26749: repressor domain derived from the king cobra, Ophiophagus hannah; SEQ ID NO: 135 (protein, Ophiophagus hannah) STPVTFEDVVVYFTAAEWVHLTNWQRDFYQAVMMETYELVASVAGDGVPMAEDEEGGVERPVWQYIPRGKRRRKTPQPRAD ... 5.4323

Could you now look at the following molecule, please?
Exercise: Return reported Log2 (fold change); argument: DOMAIN_16688 (protein, Lipotes vexillifer) SQEQVSFKDVCVDFTREEWYLLDPAQKILYRDVILENYSHLVSVGNCITKPEVIFKIEQGEEPWILEERFPKQCCSERNWK
Key: 3.5601
